- TARGET: homodimer
- EXPERIMENT_DESCRIPTION: Dimer dissociation constant from concentration dependence of NH chemical shifts (NMR)
- Assay type: binding
- APPLIED_CONDITIONS: 15% CD3OH/CDCl3, 25° C.; read-out: Dissociation constant Kd (dimer)

{"SUBSTANCE": "Ac-Leu-Ach-Val-Ach-Leu-Ach-Phe-OH [Ach-containing peptide analog (heptamer) terminating in carboxylic acid group]", "UNITS": "µM", "Kd": 1500}

----------
- TARGET: homodimer
- EXPERIMENT_DESCRIPTION: Dimer dissociation constant from concentration dependence of NH chemical shifts (NMR)
- Format: binding
- APPLIED_CONDITIONS: 2.5% CD3OH/CDCl3, 25° C.; read-out: Dissociation constant Kd (dimer)

{"SUBSTANCE": "Ac-Phe-Ach-Leu-Ach-Val-OH [Ach-containing peptide analog terminating in carboxylic acid group]", "TARGET": "homodimer", "UNITS": "µM", "Kd": 90}
